Quick reference: IC50 of the listed items.
Biological target: Steroidogenic factor 1 (Homo sapiens, UniProt Q13285)
Sequence (Q13285 whole entry, the tested form may be a part): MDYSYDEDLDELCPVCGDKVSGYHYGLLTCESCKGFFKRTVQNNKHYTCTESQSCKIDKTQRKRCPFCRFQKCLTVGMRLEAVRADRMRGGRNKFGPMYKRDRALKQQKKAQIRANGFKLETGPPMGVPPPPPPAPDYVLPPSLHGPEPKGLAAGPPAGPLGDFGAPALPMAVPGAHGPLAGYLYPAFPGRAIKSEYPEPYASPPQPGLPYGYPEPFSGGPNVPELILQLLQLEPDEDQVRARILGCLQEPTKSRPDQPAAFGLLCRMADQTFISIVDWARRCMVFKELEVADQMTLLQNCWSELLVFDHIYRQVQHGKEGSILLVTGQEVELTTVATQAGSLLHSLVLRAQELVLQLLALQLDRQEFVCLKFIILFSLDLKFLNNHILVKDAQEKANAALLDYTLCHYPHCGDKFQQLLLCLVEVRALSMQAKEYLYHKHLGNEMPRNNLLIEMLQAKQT
Assay: inhibition of SF-1 LBD-driven luciferase – cell-based, CHO-K1, Gal4-SF-1 LBD, luciferase luminescence, counter-screen for RORA inhibitor project, dose response (AID 611)
The reply should contain only the number, in µM.

Sample records with IC50:
CCOc1ccc(-c2nc(CSCC(=O)NCCN3CCOCC3)c(C)o2)cc1	4
Cc1cc(C)n(-c2ccc3cccc(NS(C)(=O)=O)c3n2)n1	4.32
COc1cc(NS(=O)(=O)c2ccc(C)cc2)c2ncccc2c1	5.2
CCn1c2ccccc2c2cc(NC(=O)CSc3nnnn3-c3ccccc3)ccc21	6.74

Ask: Query (compound): CCOc1ccc(-c2cc(CCCC(=O)NCCc3ccc(OC)c(OC)c3OC)no2)cc1 ; field requested: IC50
Result: 6.37

Ask: Could you tell me which IC50 is on file for c1ccc(-c2nc(N3CCCCCC3)c3ccccc3n2)nc1 ?
Result: 4.13

Ask: Entry O=C(NC1=NCCS1)C1COc2ccccc2O1 (stereo not drawn) : reported IC50 = ?
Result: 4.65

Ask: Fill in: IC50 of Nc1nnnn1N=C/C(Br)=C/c1ccccc1 is ___
Result: 4.19

Ask: Quick one: IC50 for Cn1c(-c2ccccc2)cc2c3no[n+]([O-])c3ccc21 ?
Result: 6.06

====

Biological target: Steroidogenic factor 1 (Homo sapiens)
Assay: inhibition of SF-1 LBD-driven luciferase – cell-based, CHO-K1, Gal4-SF-1 LBD, luciferase luminescence, counter-screen for RORA inhibitor project, dose response (AID 611)
pIC50: −log10 of the molar value.
Entries annotated with measured pIC50

Solved cases (2 shown):
O=C(O)CCCCCn1c(O)csc1=S	< 4.00
Cc1cc(C=c2sc3nc4ccccc4n3c2=O)c(C)n1-c1ccccn1	< 8.30

Now consider the entry below.
Ask: Fill blank: measured pIC50 of the compound Clc1ccc(-c2nnc(NC3=NCCCCC3)o2)cc1 is ____.
Result: < 5.44

====

Target: Steroidogenic factor 1 (Homo sapiens)
Assay: inhibition of SF-1 LBD-driven luciferase – cell-based, CHO-K1, Gal4-SF-1 LBD, luciferase luminescence, counter-screen for RORA inhibitor project, dose response (AID 611)
pIC50: −log10 of the molar value.
valueType: pIC50

Below: 3 compounds and their reported pIC50.
COC(=O)c1ccc(-c2nc(-c3cccs3)no2)cc1	< 5.44
O=C(Nc1nc2ccccc2[nH]1)c1ccc(F)cc1	< 4.96
Nc1cccc(-c2nc3ccc(N)cc3s2)c1	< 5.44

Ask: Form field: reported pIC50 of COc1ccc(CNC(=O)c2cc3c(C)nc4ccccc4c3o2)c(OC)c1 [MLS000118441]
Result: < 5.44

Ask: Field request: pIC50 | item: Cc1oc2nc(SCC(=O)NCc3cccnc3)nc(N)c2c1C
Result: < 4.00

Ask: Consider the compound Cc1ccc(N=C2Nc3ccccc3CS2)cc1 and give its measured pIC50.
Result: < 4.96

Ask: Report pIC50 for NCCCCCc1nnc(SCc2ccccc2Cl)o1 please.
Result: < 4.00

====

Target: Steroidogenic factor 1 (Homo sapiens, UniProt Q13285)
Assay: inhibition of SF-1 LBD-driven luciferase – cell-based, CHO-K1, Gal4-SF-1 LBD, luciferase luminescence, counter-screen for RORA inhibitor project, dose response (AID 611)
Overview of recorded pIC50 for various compounds
Note on units: pIC50 is unitless, being -log10 of a concentration expressed in mol/L.

// worked examples, pIC50 included
CCn1nc(-c2ccccc2)nc2c(=O)n(C)c(=O)nc1-2	5.43
O=S(=O)(c1ccccc1)N1CCN(c2cc(-c3ccccc3)nc3ncnn23)CC1	5.05
COc1cc2nc(CN3CC=C(c4ccccc4)CC3)nc(O)c2cc1OC [MLS000053305]	5.63

Ask: // pIC50 lookup, key: CCCCOC(=O)c1[nH]c2c(c1C)C(=O)CC(c1cc(OC)c(OC)c(OC)c1)C2 (centres undefined)
Result: 5.20
